SYSTEM NAME: hVAChT Y60H (Homo sapiens, UniProt Q16572, Y60H)
TEST SUMMARY: ACh equilibrium binding by competition against [3H]vesamicol
PROPERTY NAME: pKd
When answering, recall that pKd equals minus log10 of the concentration in mol/L, and write that number alone.

Query block: Query (molecule): CC(=O)OCC[N+](C)(C)C ; field requested: pKd
Result block: 1.96

###

SYSTEM NAME: hVAChT Y60A (Homo sapiens, UniProt Q16572, Y60A)
Sequence (Q16572 1-532 Y60A): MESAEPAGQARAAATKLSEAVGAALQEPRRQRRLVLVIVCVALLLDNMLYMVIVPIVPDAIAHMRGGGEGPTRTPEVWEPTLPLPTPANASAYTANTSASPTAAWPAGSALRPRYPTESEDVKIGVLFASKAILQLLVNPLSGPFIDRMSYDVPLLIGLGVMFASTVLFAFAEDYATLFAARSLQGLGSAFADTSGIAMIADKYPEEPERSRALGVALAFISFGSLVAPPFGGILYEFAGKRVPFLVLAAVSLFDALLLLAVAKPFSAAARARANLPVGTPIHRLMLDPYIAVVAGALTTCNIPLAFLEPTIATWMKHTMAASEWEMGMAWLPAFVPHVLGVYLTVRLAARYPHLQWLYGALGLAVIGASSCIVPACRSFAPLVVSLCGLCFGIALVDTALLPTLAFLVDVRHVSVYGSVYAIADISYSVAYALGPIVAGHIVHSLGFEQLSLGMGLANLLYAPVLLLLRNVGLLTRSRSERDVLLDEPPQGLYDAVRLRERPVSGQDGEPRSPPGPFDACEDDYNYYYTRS
TEST SUMMARY: ACh equilibrium binding by competition against [3H]vesamicol
PROPERTY NAME: Kd (mM)
Please reply with the bare figure in mM and do not write the unit itself.

Query block: Entry under review: CC(=O)OCC[N+](C)(C)C . Reported Kd?
Result block: 8.2

###

SYSTEM NAME: hVAChT C388A (Homo sapiens, UniProt Q16572, C388A)
Sequence (Q16572 1-532 C388A): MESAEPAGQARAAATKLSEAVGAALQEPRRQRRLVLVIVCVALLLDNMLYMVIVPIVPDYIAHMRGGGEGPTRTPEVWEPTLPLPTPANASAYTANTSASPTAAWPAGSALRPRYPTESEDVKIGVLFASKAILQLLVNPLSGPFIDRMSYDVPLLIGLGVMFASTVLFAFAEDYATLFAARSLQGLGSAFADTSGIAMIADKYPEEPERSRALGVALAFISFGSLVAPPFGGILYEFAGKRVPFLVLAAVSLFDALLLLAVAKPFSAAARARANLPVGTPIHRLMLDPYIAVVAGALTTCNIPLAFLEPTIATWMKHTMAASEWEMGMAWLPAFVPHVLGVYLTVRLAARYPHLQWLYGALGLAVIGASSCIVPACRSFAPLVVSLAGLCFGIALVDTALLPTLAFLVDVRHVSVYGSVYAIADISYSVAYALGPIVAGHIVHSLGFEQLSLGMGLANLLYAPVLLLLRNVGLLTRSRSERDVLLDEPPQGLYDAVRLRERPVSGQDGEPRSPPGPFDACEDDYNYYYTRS
TEST SUMMARY: ACh equilibrium binding by competition against [3H]vesamicol
PROPERTY NAME: pKd
When answering, recall that pKd equals minus log10 of the concentration in mol/L, and write that number alone.

Query block: Request the reported pKd associated with CC(=O)OCC[N+](C)(C)C
Result block: 1.77

Source listed as paper PMC2962730.
